The reader will find reported abundance fitness values listed item by item below.
B1: POU domain, class 5, transcription factor 1, residues 134 to 212; numbered along this chain, Q01860 (parent)
chain: EESQDIKALQKELEQFAKLLKQKRITLGYTQADVGLTLGVLFGKVFSQTTICRFEALQLSFKNMCKLRPLLQKWVEEAD

Variants of: B1
Assay: abundance fitness (aPCA) (normalised: wild type 0, dead -1); higher = more abundant; growth selection in yeast, the domain comes from the species named
Details: Homo sapiens
// response body must contain only the number

Worked cases, answers included:
R53A = -0.06
E77N = 0.718
V75H = -0.025
P69V = -0.414
I6N = -0.082
K44C = -0.381
A8P = 0.697
V75R = -0.661
K11C = -0.369
I25K = -0.131

Consider the variant `L36K` and give its measured abundance fitness. 0.087

// repeat for `N63G` and report -0.314

// repeat for `M64L` and report -0.333

// repeat for `A78M` and report -0.033

// repeat for `A17R` and report -0.768

// repeat for `D5C` and report 0.057

// repeat for `K66N` and report 0.209

// repeat for `K62G` and report -0.146

// repeat for `Q4P` and report -0.135

// repeat for `P69H` and report -0.208

// repeat for `L67R` and report -0.575

// repeat for `N63E` and report 0.126

// repeat for `L13A` and report -0.526

// repeat for `R24V` and report -0.068

// repeat for `T26V` and report -0.212

// repeat for `L57K` and report -0.45

// repeat for `A78R` and report -0.289

// repeat for `Q10W` and report 0.305
